experiment: in vivo
assay_conditions: female, ICR, mouse, iv
readout_type: Tmax (min)
// units = min; emit number, no label

Q: For C[C@@H]1C[C@H]2[C@@H]3CCC4=C/C(=N/OCCCO[C@H]5O[C@H](CO)[C@@H](O)[C@H](O)[C@@H]5O)C=C[C@]4(C)[C@@]3(F)[C@@H](O)C[C@]2(C)[C@@]1(O)C(=O)CO [Compound I5] , what is its reported Tmax?
Result: 5

====

experiment: in vivo
assay_conditions: female, ICR, mouse, iv
readout_type: clearance

Q: Tell me the measured clearance of C[C@@H]1C[C@H]2[C@@H]3CCC4=C/C(=N/OCCCO[C@H]5O[C@H](CO)[C@@H](O)[C@H](O)[C@@H]5O)C=C[C@]4(C)[C@@]3(F)[C@@H](O)C[C@]2(C)[C@@]1(O)C(=O)CO , please.
Result: 178 mL/min/kg
